B1: tRNA (parent)
chain: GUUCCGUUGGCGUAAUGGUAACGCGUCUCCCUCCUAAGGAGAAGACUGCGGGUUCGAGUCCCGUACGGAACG

Variants of: B1
Experiment: yeast fitness relative to wild type (ratio to wild type); higher = fitter; tRNA-Arg(CCU), competitive growth, 37 C, YPD
This sample holds only a part of the variants without activity.
Decide by yeast fitness: equal to or exceeding 0.6 means met, less means not met.

Entry A15U C22G G25A C31U A57C U64A G68A : is its yeast fitness no less than 0.6?
not met

Evaluate `C22G` : yeast fitness at minimum 0.6?
met

Does the variant C5A U64C have recorded yeast fitness that is 0.6 or more?
met

Dear colleague, could you confirm whether U19C A20C A65U has yeast fitness at or above 0.6?
not met

Quick check: does C24G G38C A65C have yeast fitness greater than or equal to 0.6?
not met

Does the variant G6A G10A C30U C60G have recorded yeast fitness that is 0.6 or more?
not met

Tell me whether yeast fitness is at least 0.6 here: U8C U19G C22U C31U A40U G67A
not met

Does the reported yeast fitness for U7C C24G A65C fall at or above the 0.6 mark?
not met

Could you tell me if the measured yeast fitness of C4U C27A C31U C60G reaches 0.6 or more?
not met

Decide: yeast fitness of C5U C22A A45C >= 0.6?
not met

Determine whether measured yeast fitness meets or exceeds 0.6 for U19C C46U A69U
met

This collection of values is drawn from the RNAGym collection of RNA variant scans (doi:10.1126/science.aae0568).
